meta.source: patent US12630497B2

Give IC50 for every item shown.
molecular target: MDH1 (Homo sapiens, UniProt P40925); experiment: MDH1 inhibitory activity (in vitro, NADH oxidation, absorbance 340 nm); assay type: biochemical; parameters: purchased Biovision; settings: 0.25 nM MDH1 recombinant protein, 200 μM oxaloacetate, 30 minutes
Sequence (P40925 whole entry): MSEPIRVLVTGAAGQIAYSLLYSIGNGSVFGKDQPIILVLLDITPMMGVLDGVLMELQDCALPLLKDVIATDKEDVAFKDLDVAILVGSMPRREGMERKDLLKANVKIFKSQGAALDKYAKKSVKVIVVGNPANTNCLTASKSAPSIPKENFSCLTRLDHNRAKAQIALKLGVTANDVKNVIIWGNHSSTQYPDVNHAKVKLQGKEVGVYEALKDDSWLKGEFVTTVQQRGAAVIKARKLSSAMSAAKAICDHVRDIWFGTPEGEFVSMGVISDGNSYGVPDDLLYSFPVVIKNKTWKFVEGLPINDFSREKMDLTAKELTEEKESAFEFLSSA

1) COC(=O)c1ccc(C)c(NC(=O)/C=C/Oc2ccc(C(C)(C)CC(C)(C)C)cc2)c1 5 to 10 µM
2) COC(=O)c1ccc(OCCCN2CCOCC2)c(NC(=O)COc2ccc(C34CC5CC(CC(C5)C3)C4)cc2)c1 > 10 µM
3) CCOC(=O)CNC(=O)c1cccc(NC(=O)CCOc2ccc(C(C)(C)CC(C)(C)C)cc2)c1 > 10 µM
4) COC(=O)c1cccc(NC(=O)C(C)(C)Oc2ccc(C(C)(C)CC(C)(C)C)cc2)c1 1 to 5 µM
5) COC(=O)c1cccc(NC(=O)/C=C/Oc2ccc(C(C)(C)CC(C)(C)C)cc2)c1 1 to 5 µM

Would you mind listing IC50 for each of the following compounds?
1. COC(=O)c1cccc(NC(=O)C(C)(C)Oc2ccc(C34CC5CC(CC(C5)C3)C4)cc2)c1
2. COC(=O)c1cccc(NC(=O)COc2ccc(C(C)(C)C)cc2)c1
3. COC(=O)c1cccc(NC(=O)CCCOc2ccc(C34CC5CC(CC(C5)C3)C4)cc2)c1

Reply |
1 to 5 µM
> 10 µM
1 to 5 µM
